- Tested on: MDA-N
- ASSAY_OVERVIEW: NCI tumour cell line growth inhibition, 48 h
The source made the active and inactive calls. Rule as the data show it: active = GI50 up to about 1.1 µM and inactive = higher.
# valid calls are label 1 = active, label 0 = inactive; nothing else

Prompt: What outcome does the record of this test show for CSc1nc(C)cc(N(C)c2ccccc2)n1 ?
Completion: label 0

Prompt: What outcome does the record of this test show for Cc1nnc(N/N=C2/C(=O)Nc3ccccc32)nc1O ?
Completion: label 0

Prompt: What outcome does the record of this test show for Nc1nc2cc3nc(N)c(N)nc3cc2nc1N ?
Completion: label 0

Prompt: What outcome does the record of this test show for O=C1C(Cl)=C(NCCN2CCOCC2)C(=O)c2ncccc21 ?
Completion: label 1

Prompt: What outcome does the record of this test show for CCCCNN ?
Completion: label 0

Prompt: What outcome does the record of this test show for Clc1ccc(/C=N/c2ccc3c(c2)Cc2ccccc2-3)c(Cl)c1 ?
Completion: label 0

Prompt: What outcome does the record of this test show for Clc1ccc(-c2ccc(-c3nnc(CCc4nnc(-c5ccc(-c6ccc(Cl)cc6)o5)o4)o3)o2)cc1 ?
Completion: label 0

Prompt: What outcome does the record of this test show for Cc1cc2c(c(=O)n1C)SCC2 ?
Completion: label 0

Prompt: What outcome does the record of this test show for CCOC1OC(=O)c2cc3ccc4c(c3c(-c3ccc5c(c3)OCO5)c21)OCO4 (stereo unspecified) ?
Completion: label 0

Prompt: What outcome does the record of this test show for COc1cc(C(=O)N(C(=S)OCc2ccccn2)c2ccccc2)cc(OC)c1OC ?
Completion: label 0

Prompt: What outcome does the record of this test show for CCOC(=O)C1(C#N)C(=O)c2cc[n+](CC[n+]3ccc4c(c3)C(=O)C(C#N)(C(=O)OCC)C4=O)cc2C1=O (stereo unspecified) ?
Completion: label 0

====

- Tested on: MDA-MB-435
- ASSAY_OVERVIEW: NCI tumour cell line growth inhibition, 48 h
The source made the active and inactive calls. No stated cut-off is given here; in the data, active = GI50 up to about 1.1 µM and inactive = higher. *1 amine or outer side, *2 acyl side, *3 side chain or, on linkers, in order; H or OH if unused. Where a SMILES comes first, the peptide text is derived from it. [ ]: non-standard residue; d: D form. The star is where a group is joined. ξ: configuration not given here. X53 = CC(C)C[C@H](N[*:1])C1=N[C@H](C(=O)[*:2])CS1; Ile(3ξ) = CCC(C)[C@H](N)C(=O)O; Allyl(1,1-Me2) = C=CC(C)(C)*
# valid calls are active, inactive; nothing else

Prompt: What outcome does the record of this test show for COc1ccc2c(c1)N(CCC1CCCCN1C)c1ccccc1S2 (stereo unspecified) [OXYRIDAZINE] ?
Completion: inactive

Prompt: What outcome does the record of this test show for C/C(=N/NC(=S)N1CC2CCC(CC2)C1)c1cnccn1 ?
Completion: active

Prompt: What outcome does the record of this test show for CC1CC[C@@]2(OC1)OC1C[C@H]3[C@@H]4CC[C@H]5CC(OC6OC(CO)C(O)C(OC7OC(CO)C(OC8OC(CO)C(O)C(OC9OC(CO)C(O)C(O)C9O)C8OC8OC(CO)C(O)C(O)C8O)C(O)C7O)C6O)[C@H](O)CC5(C)[C@H]4CCC3(C)C1[C@@H]2C (stereo partly specified) ?
Completion: inactive

Prompt: What outcome does the record of this test show for C=CC(C)(C)OC[C@@H]1NC(=O)CNC(=O)[C@@H]2CCCN2C(=O)[C@H](C(C)CC)NC(=O)[C@@H]2CSC(=N2)[C@H](CC(C)C)NC1=O (stereo partly specified) (cyclo(GS(Allyl(1,1-Me2))[X53][Ile(3ξ)]P)) ?
Completion: inactive

Prompt: What outcome does the record of this test show for CCOC(=O)C1(C#N)C(=O)c2cc[n+](CC[n+]3ccc4c(c3)C(=O)C(C#N)(C(=O)OCC)C4=O)cc2C1=O (stereo unspecified) ?
Completion: inactive

Prompt: What outcome does the record of this test show for Cc1ccc(S(=O)(=O)NC(CCC(=O)NNc2ccccc2)C(=O)NNc2ccccc2)cc1 (stereo unspecified) ?
Completion: inactive
